The reported measurements were obtained from the kinase profiling compilation of Christmann-Franck et al. (2016).

Target: CHEK2 (human)
Assay: radiometric filter-binding kinase assay, Kinase HotSpot
Settings: compound 0.5 µM; ATP 10 µM
quantityKind: residual activity (%)
One number for each entry, in %.

>>> numericresult("CC(=O)c1ccc(N2CCOCC2)cc1O")
104
>>> numericresult("O=C1NC(=O)c2c1c1c3ccccc3n3c1c1c2c2ccccc2n1C1CCC3O1")
13
>>> numericresult("Cc1[nH]c(/C=C2\\C(=O)Nc3ccc(S(=O)(=O)N(C)c4cccc(Cl)c4)cc32)c(C)c1C(=O)N1CCN(C)CC1")
85.1
>>> numericresult("CNc1cc2c(Nc3cccc(Br)c3)ncnc2cn1")
85.7
>>> numericresult("Nc1ncnc2[nH]nc(Nc3ccc(F)cc3)c12")
98.6
>>> numericresult("CCCC(=O)Oc1ccc2[nH]c(C(=O)c3cc4ccccc4[nH]3)cc2c1")
99
>>> numericresult("CCOC(=O)c1c(C)[nH]c(/C=C2\\C(=O)Nc3ccccc32)c1C")
70.5
>>> numericresult("O=C1NC(=O)C(c2cn(CCCn3ccnc3)c3ccccc23)=C1Nc1ccccc1")
88.3

List the reported residual activity of each compound below.
1. Oc1cccc(-c2nc(N3CCOCC3)c3oc4ncccc4c3n2)c1
2. COc1cc2ncnc(Nc3cccc(Cl)c3)c2cc1OC
3. CC[n+]1c(/C=C/N(C)c2ccccc2)n(-c2ccccc2)c2ccc(-c3nc4ccccc4s3)cc21
4. CCC(=O)Nc1ccc2ncnc(Nc3cccc(Br)c3)c2c1

Result:
90.4
79.7
105
87.1

List the reported residual activity of each compound below.
1. O=C(Nc1cccc(Nc2nccc(Nc3cccc(C(F)(F)F)c3)n2)c1)C1CC1
2. CCN(CC)CCNC(=O)c1c(C)[nH]c(/C=C2\C(=O)Nc3ccc(Cl)cc32)c1C
3. Cc1ccc(NC2=CC(=O)c3sc(C)nc3C2=O)cc1
4. Cc1ccc(Nc2nccc(N(C)c3ccc4c(C)n(C)nc4c3)n2)cc1S(N)(=O)=O
5. Nc1cccc(-c2cc3c(Oc4cccc(O)c4)ncnc3[nH]2)c1
6. CO[C@H]1CC2CC[C@@H](C)[C@@](O)(O2)C(=O)C(=O)N2CCCC[C@H]2C(=O)OC([C@H](C)C[C@@H]2CC[C@@H](O)[C@H](OC)C2)CC(=O)[C@H](C)/C=C(\C)[C@@H](O)[C@@H](OC)C(=O)[C@H](C)C[C@H](C)/C=C/C=C/C=C/1C (some centres not stated)
7. O=C1NC(=O)/C(=C/c2ccc3c(c2)OC(F)(F)O3)S1
8. CC#CC(=O)Nc1cc2c(Nc3ccc(F)c(Cl)c3)ncnc2cn1

Result:
[107, 6.42, 100, 95.1, 75.8, 99, 97.9, 98.8]

List the reported residual activity of each compound below.
1. CCN(CC)C(=O)c1ccc(Nc2nc(OCC3CCCCC3)c3nc[nH]c3n2)cc1
2. N#C/C(=C(/N)Sc1ccc(N)cc1)c1ccccc1C(F)(F)F
3. O=c1cc(N2CCOCC2)oc2c1ccc1ccccc12
4. c1ccc(-c2n[nH]c3c2oc2ccccc23)cc1
5. O=C1Nc2ccc(Cl)cc2/C1=C/c1cc(Cl)c(O)c(Cl)c1
6. COc1ccc(COc2ccc(Cc3cnc(N)nc3N)cc2OC)cc1
7. CCN(CC)CCNC(=O)c1c(C)[nH]c(/C=C2\C(=O)Nc3ccc(F)cc32)c1C

Result:
[71.3, 97.7, 104, 101, 70.2, 107, 7.13]
